- subject_of_test: UniProtKB Q86V86
- test_protocol: IC50 of Compound (nM) (ATP present at Km of enzyme), Table 30
- Assay type: biochemical
- protocol_conditions: Pim-3(h), ATP present at Km of enzyme; read-out: IC50 of Compound, Pim-3(h)
pIC50: −log10 of the molar value.
Rule: pIC50 under 7 gives -1, otherwise 1.

>>> group("COc1cccc2ccc(CNCC3CCN(c4nccc(/C=C5\\SC(=O)NC5=O)n4)CC3)nc12")
1
>>> group("O=C1NC(=O)/C(=C/c2ccnc(N3CCC(CCO)CC3)n2)S1")
-1
>>> group("Cc1cccc(CNCC2CCN(c3nccc(/C=C4\\SC(=O)NC4=O)n3)CC2)n1")
1
>>> group("O=C1NC(=O)/C(=C/c2ccnc(N3CCC(CNCc4ccc5ccccc5n4)CC3)n2)S1")
1
>>> group("O=C1NC(=O)/C(=C/c2ccnc(N3CCC(CNCc4ccc5cc(F)ccc5n4)CC3)n2)S1")
1
>>> group("O=C1NC(=O)/C(=C/c2ccnc(N3CCC(CNCc4cccc(-c5cccs5)n4)CC3)n2)S1")
1
>>> group("NCc1cccc(CNc2nccc(/C=C3\\SC(=O)NC3=O)n2)c1")
-1
>>> group("CCCCN(C)c1nccc(/C=C2\\SC(=O)NC2=O)n1")
-1
>>> group("O=C1NC(=O)/C(=C/c2ccnc(N3CCC(CNc4ccc5ccccc5n4)CC3)n2)S1")
-1

The origin of these recorded values is patent US9157077B2.
